TARGET OF ASSAY: Ba/F3 L858R/T790M/C797S EGFR triple mutant cell line (Homo sapiens, UniProt P00533, T790M/C797S/L858R, cells depend on it)
Sequence (P00533 whole entry T790M/C797S/L858R): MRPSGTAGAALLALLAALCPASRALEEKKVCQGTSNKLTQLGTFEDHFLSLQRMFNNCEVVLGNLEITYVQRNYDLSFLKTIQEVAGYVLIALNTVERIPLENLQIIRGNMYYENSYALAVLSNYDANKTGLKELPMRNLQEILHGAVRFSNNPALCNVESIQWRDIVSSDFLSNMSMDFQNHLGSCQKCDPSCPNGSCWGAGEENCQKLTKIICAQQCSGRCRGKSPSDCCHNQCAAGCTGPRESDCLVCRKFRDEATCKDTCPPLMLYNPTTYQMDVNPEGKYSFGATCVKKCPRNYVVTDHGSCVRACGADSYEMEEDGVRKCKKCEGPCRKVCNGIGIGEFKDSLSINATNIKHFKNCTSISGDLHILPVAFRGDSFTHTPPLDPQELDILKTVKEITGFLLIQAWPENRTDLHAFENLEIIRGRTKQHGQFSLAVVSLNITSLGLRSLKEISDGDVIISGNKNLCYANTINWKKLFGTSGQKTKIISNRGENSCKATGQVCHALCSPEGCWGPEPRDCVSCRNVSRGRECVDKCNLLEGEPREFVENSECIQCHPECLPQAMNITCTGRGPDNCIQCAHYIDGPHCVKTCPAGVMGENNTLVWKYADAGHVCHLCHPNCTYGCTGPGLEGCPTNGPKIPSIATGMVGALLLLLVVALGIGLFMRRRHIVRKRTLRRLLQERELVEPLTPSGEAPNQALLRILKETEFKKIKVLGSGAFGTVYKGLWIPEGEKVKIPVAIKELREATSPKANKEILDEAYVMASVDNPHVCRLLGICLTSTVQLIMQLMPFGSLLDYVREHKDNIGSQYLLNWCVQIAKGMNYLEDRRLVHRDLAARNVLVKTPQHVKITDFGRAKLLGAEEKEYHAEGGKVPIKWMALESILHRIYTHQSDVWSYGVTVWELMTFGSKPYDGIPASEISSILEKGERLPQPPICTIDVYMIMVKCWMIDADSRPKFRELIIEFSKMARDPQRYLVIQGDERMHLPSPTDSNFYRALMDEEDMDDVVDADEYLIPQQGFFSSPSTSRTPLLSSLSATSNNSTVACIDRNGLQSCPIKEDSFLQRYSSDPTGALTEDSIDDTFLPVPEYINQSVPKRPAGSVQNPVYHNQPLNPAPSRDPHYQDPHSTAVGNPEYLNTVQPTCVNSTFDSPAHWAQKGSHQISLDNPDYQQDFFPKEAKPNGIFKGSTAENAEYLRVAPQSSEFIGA
PROTOCOL TEXT: Cell proliferation inhibition experiment (CellTiter-Glo), Ba/F3 L858R/T790M/C797S
Format: cell-based
ASSAY CONTEXT: 72 hours, Cell Titer-Glo, read-out: Ba/F3 (L858R/T790M/C797S) IC50
REPORTED METRIC: GI50 (nM)

>  <MOLECULE>
COc1cc(N2CCC(N3CCO[C@@H](C)C3)CC2)c(-c2cnn(C)c2)cc1Nc1ncc(Br)c(Nc2ccc3nccnc3c2P(C)(C)=O)n1

>  <REPORTED METRIC>
GI50

>  <OUTPUT UNIT>
nM

>  <NUMBER>
2.62

$$$$
>  <MOLECULE>
COc1cc(N2CCN3CCCCC3C2)c(-c2cnn(C)c2)cc1Nc1ncc(Br)c(Nc2ccc3nccnc3c2P(C)(C)=O)n1 (stereo not drawn)

>  <REPORTED METRIC>
GI50

>  <OUTPUT UNIT>
nM

>  <NUMBER>
7.17

$$$$
>  <MOLECULE>
COc1cc(N2CCN(CC3(C#N)CC3)CC2)c(-c2cnn(C)c2)cc1Nc1ncc(Br)c(Nc2ccc3nccnc3c2P(C)(C)=O)n1

>  <REPORTED METRIC>
GI50

>  <OUTPUT UNIT>
nM

>  <NUMBER>
3.05

$$$$

###

Consider the following compounds and their measured GI50 readings.
TARGET OF ASSAY: Ba/F3 L858R/T790M/C797S EGFR triple mutant cell line (Homo sapiens, UniProt P00533, T790M/C797S/L858R, cells depend on it)
PROTOCOL TEXT: Cell proliferation inhibition experiment (CellTiter-Glo), Ba/F3 L858R/T790M/C797S
Format: cell-based
ASSAY CONTEXT: 72 hours, Cell Titer-Glo, read-out: Ba/F3 (L858R/T790M/C797S) IC50

>  <COMPOUND>
COc1cc(N2CCOCC2)c(-c2cnoc2)cc1Nc1ncc(Br)c(Nc2ccc3nccnc3c2P(C)(C)=O)n1

>  <GI50 (nM)>
68.8

$$$$
>  <COMPOUND>
COc1cc(N2CCO[C@H](C)C2)c(-c2cnn(C)c2)cc1Nc1ncc(Br)c(Nc2ccc3nccnc3c2P(C)(C)=O)n1

>  <GI50 (nM)>
4.24

$$$$
>  <COMPOUND>
COc1cc(N2CCOCC2)c(-c2ccn(C)n2)cc1Nc1ncc(Br)c(Nc2ccc3nccnc3c2P(C)(C)=O)n1

>  <GI50 (nM)>
62

$$$$
>  <COMPOUND>
COc1cc(N2CCC(N3CCN(C)CC3)CC2)c(-c2cnn(C)c2)cc1Nc1ncc(Br)c(Nc2ccc3nccnc3c2P(C)(C)=O)n1

>  <GI50 (nM)>
20.9

$$$$
>  <COMPOUND>
COCCN1CCN(C2CCN(c3cc(OC)c(Nc4ncc(Br)c(Nc5ccc6nccnc6c5P(C)(C)=S)n4)cc3-c3cnn(C)c3)CC2)CC1

>  <GI50 (nM)>
8.59

$$$$
>  <COMPOUND>
COc1cc(N2CCC(N3CC(F)C3)C2)c(-c2cnn(C)c2)cc1Nc1ncc(Br)c(Nc2ccc3nccnc3c2P(C)(C)=O)n1 (racemic)

>  <GI50 (nM)>
3.56

$$$$
>  <COMPOUND>
COc1cc(NC(C)C(F)(F)F)c(-c2cnn(C)c2)cc1Nc1ncc(Br)c(Nc2ccc3nccnc3c2P(C)(C)=O)n1 (stereo not shown)

>  <GI50 (nM)>
15.4

$$$$
>  <COMPOUND>
COc1cc(N2CCC3(CC2)CN(C)CCN3C)c(-c2cnn(C)c2)cc1Nc1ncc(Br)c(Nc2ccc3nccnc3c2P(C)(C)=O)n1

>  <GI50 (nM)>
16.4

$$$$
>  <COMPOUND>
COc1cc(N2CCN(CC3CC3)CC2)c(-c2cnn(C)c2)cc1Nc1ncc(Br)c(Nc2ccc3nccnc3c2P(C)(C)=O)n1 [compound 235]

>  <GI50 (nM)>
24.8

$$$$
>  <COMPOUND>
Cn1cc(-c2cc(Nc3ncc(Br)c(Nc4ccc5nccnc5c4P(C)(C)=O)n3)c(OCC(F)(F)F)nc2N2CCOCC2)cn1

>  <GI50 (nM)>
8.94

$$$$
>  <COMPOUND>
COc1cc(N2CCN3CCCC[C@@H]3C2)c(-c2cnn(C)c2)cc1Nc1ncc(Br)c(Nc2ccc3nccnc3c2P(C)(C)=O)n1

>  <GI50 (nM)>
5.38

$$$$
>  <COMPOUND>
COc1cc(N2CCN3CCOCC3C2)c(-c2cnn(C)c2)cc1Nc1ncc(Br)c(Nc2ccc3nccnc3c2P(C)(C)=O)n1 (stereo not shown)

>  <GI50 (nM)>
6.39

$$$$
>  <COMPOUND>
COc1c(Nc2ncc(Br)c(Nc3ccc4nccnc4c3P(C)(C)=O)n2)cc(-c2cnn(C)c2)c(N2CCC(N(C)C)CC2)c1F

>  <GI50 (nM)>
40.9

$$$$
